B1: DCAF4 (parent)
chain: TTKCVRQYEGHVNEYAYLPLHVHE

variants of: B1; test: protein stability index of a GFP-peptide fusion (GPS, HEK-293T) (PSI 1-6); higher = more stable; conditions: c terminus: a fixed tail appended;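 note: lentivirally expressed fusions sorted by FACS into six bins by GFP to DsRed ratio, PSI derived from sequencing read proportions per bin multiplied by bin number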
For each record, write down the corresponding protein stability index.
Answers are plain numbers.

sequence variant	measure	reported
E24D	protein stability index	2.84
E9P	protein stability index	2.51
H21P	protein stability index	2.63
R6A	protein stability index	3.02
E9V	protein stability index	2.42
A16L	protein stability index	2.33
R6F	protein stability index	1.8
H11W	protein stability index	1.81
H11S	protein stability index	2.6
Y15S	protein stability index	3.28

Report protein stability index for each item below.
1. V12W
2. E14V
3. E14F
4. T2I
5. P19N
6. Y8E

Response given:
1. 2.07
2. 1.44
3. 3.16
4. 2.19
5. 2.33
6. 4.03

Report protein stability index for each item below.
1. T2K
2. V12H

Response given:
1. 2.64
2. 2.71

Report protein stability index for each item below.
1. V5E
2. E9H
3. E24H
4. Q7A

Response given:
3.29
1.97
2.23
2.52
